Reference source: patent US20170246137A1

test: In vitro metabolism in human liver microsomes (STS and CYP); format: in vitro ADME; details: human, liver microsomes, pH 7.4, with 667-Coumate (STS inhibitor; concentration not stated), + NADPH + 667-Coumate (STS inactive, CYP active), 5 μM
Measured quantity: half-life at 5 μM (min)
Numbers only, in min.

For the compound CC/C(=C(/CC)c1ccc(O)cc1)c1ccc(O)cc1 [DES, diethylstilbestrol, reference compound] , give its measured half-life at 5 μM value.
14
